system: Solute carrier family 22 member 12 (Homo sapiens, UniProt Q96S37)
Sequence (Q96S37 whole entry): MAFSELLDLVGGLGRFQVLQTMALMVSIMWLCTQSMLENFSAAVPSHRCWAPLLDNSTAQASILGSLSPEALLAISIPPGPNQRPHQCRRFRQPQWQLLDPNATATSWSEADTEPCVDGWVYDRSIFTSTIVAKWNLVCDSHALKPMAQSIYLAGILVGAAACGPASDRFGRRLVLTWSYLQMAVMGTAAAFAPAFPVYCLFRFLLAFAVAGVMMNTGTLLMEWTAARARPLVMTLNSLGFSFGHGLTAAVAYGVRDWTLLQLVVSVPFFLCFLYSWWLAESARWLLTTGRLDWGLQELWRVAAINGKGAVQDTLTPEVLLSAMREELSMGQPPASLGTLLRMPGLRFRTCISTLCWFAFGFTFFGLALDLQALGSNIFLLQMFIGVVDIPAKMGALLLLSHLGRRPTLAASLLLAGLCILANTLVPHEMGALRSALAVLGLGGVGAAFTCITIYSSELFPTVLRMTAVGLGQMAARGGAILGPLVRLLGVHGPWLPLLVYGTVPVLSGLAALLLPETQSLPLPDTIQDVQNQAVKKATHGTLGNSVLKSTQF
assay remarks: Inhibition of URAT1 in human RPTEC assessed as inhibition of [14C]uric acid uptake preincubated for 15 mins followed by [14C]uric acid addition and incubated under shaking condition for 2 hrs by scintillation counter method
Format: tissue-based
pIC50: −log10 of the molar value.
measured attribute: pIC50

O=C(c1cc(Cl)c(O)c(Cl)c1)N1CS(=O)(=O)c2ccccc21 : 5.17
Cc1c(C)n(C(=O)c2ccc(O)c(C#N)c2)c2ccccc12 : 4.97
N#Cc1cc(C(=O)N2CCc3ccccc32)cc(Cl)c1O : 4.83
COc1cc(C(=O)N2CS(=O)(=O)c3ccccc32)cc(Cl)c1O : 5.37
